Values compiled from patent US20120225061A1.

# System Tested: Pim1 kinase (Homo sapiens)
# Sequence (P11309 whole entry): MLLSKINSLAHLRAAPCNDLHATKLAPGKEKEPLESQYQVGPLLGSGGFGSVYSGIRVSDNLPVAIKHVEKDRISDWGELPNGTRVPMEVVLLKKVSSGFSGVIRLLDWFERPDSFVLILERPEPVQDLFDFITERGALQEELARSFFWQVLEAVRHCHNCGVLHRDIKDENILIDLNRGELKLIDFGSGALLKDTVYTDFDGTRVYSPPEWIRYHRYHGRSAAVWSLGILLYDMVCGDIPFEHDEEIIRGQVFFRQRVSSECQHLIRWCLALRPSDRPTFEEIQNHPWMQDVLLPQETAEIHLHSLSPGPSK
# Procedure Summary: Pim1 AlphaScreen assay (high ATP)
Record form. Attribute: IC50. Fill in for each entry.
Give bare numbers, in nM.

Molecule: C[C@H]1C[C@@H](c2ccncc2NC(=O)c2nc(-c3ccc(F)cn3)ccc2N)C[C@@H](O)[C@]1(C)O
U: nM
IC50: 78.7

Molecule: CCOc1cccc(-c2ccc(N)c(C(=O)Nc3cnccc3[C@H]3C[C@@H](O)[C@](C)(O)[C@@H](C)C3)n2)n1
U: nM
IC50: 11.9

Molecule: COCCOc1ccc(F)c(-c2nc(C(=O)Nc3cnccc3[C@H]3C[C@@H](N)[C@](C)(O)[C@@H](C)C3)ccc2F)c1F
U: nM
IC50: 0.14

Molecule: C[C@H]1C[C@@H](c2ccncc2NC(=O)c2ccc(F)c(-c3c(F)cc(C4CCOCC4)cc3F)n2)C[C@@H](O)[C@]1(C)O
U: nM
IC50: 0.2

Molecule: C[C@H]1C[C@@H](c2ccncc2NC(=O)c2ccc(F)c(-c3c(F)cc(C(C)(C)O)cc3F)n2)C[C@@H](O)[C@]1(C)O
U: nM
IC50: 0.42

Quick batch: IC50 for everything below.
1. C[C@H]1C[C@@H](c2ccncc2NC(=O)c2nc(-c3c(F)cc(C4(O)CCOCC4)cc3F)sc2N)C[C@@H](N)[C@]1(C)O
2. C[C@H]1C[C@@H](c2ccncc2NC(=O)c2ccc(F)c(-c3c(F)cc(C(F)F)cc3F)n2)C[C@@H](N)[C@]1(C)O
3. COCCCOc1cc(F)c(-c2nc(C(=O)Nc3cnccc3[C@H]3C[C@@H](N)[C@](C)(O)[C@@H](C)C3)ccc2F)c(F)c1
4. C[C@H]1C[C@@H](c2ccncc2NC(=O)c2ccc(F)c(-c3c(F)cc(O[C@@H]4CCCOC4)cc3F)n2)C[C@@H](N)[C@]1(C)O
5. C[C@H]1C[C@@H](c2ccncc2NC(=O)c2nc(-c3ccc(F)c(F)c3)ccc2N)C[C@@H](O)[C@]1(C)O

0.03
0.07
0.04
0.02
57.7

Parameters: items (list). Returns: IC50 for each item.
1. CC(C)OCc1cc(F)c(-c2nc(C(=O)Nc3cnccc3[C@H]3C[C@@H](N)[C@](C)(O)[C@@H](C)C3)ccc2F)c(F)c1
2. C[C@H]1C[C@@H](c2ccncc2NC(=O)c2ccc(F)c(-c3c(F)cc(OC4CCOCC4)cc3F)n2)C[C@@H](O)[C@]1(C)O
3. CC(C)Oc1cc(F)c(-c2nc(C(=O)Nc3cnccc3[C@H]3C[C@@H](N)[C@](C)(O)[C@@H](C)C3)ccc2F)c(F)c1
4. C[C@H]1C[C@@H](c2ccncc2NC(=O)c2ccc(F)c(-c3c(F)cc(OC4CCOCC4)cc3F)n2)C[C@@H](N)[C@]1(C)O
5. C[C@H]1C[C@@H](c2ccncc2NC(=O)c2ccc(F)c(-c3c(F)cc(C4CCS(=O)(=O)CC4)cc3F)n2)C[C@@H](O)C1(C)O (stereo in doubt)

[0.07, 0.47, 0.02, 0.03, 0.26]

State recorded IC50 for all listed molecules.
1. C[C@H]1C[C@@H](c2ccncc2NC(=O)c2ccc(F)c(-c3c(F)cc(C(C)(C)C#N)cc3F)n2)C[C@@H](N)[C@]1(C)O
2. C[C@H]1C[C@@H](c2ccncc2NC(=O)c2ccc(F)c(-c3c(F)cc(CCO)cc3F)n2)C[C@@H](N)[C@]1(C)O
3. C[C@H]1C[C@@H](c2ccncc2NC(=O)c2ccc(F)c(-c3c(F)cccc3F)n2)C[C@@H](N)[C@]1(C)O
4. C[C@H]1C[C@@H](c2ccncc2NC(=O)c2nc(-c3cc(F)ccn3)ccc2N)C[C@@H](O)[C@]1(C)O

1: 0.03; 2: 0.07; 3: 0.11; 4: 2530
